biological target: Neuropilin-1 (Homo sapiens) (UniProt O14786); assay: NRP-1 b1b2 CendR peptide binding inhibitors, dose response, biochemical, FP and AlphaScreen panel (AID 651650); conditions: NRP-1 b1b2 / RPARPAR peptide binding, FP or AlphaScreen; FP, run 1; individual panel run IC50
Sequence (O14786 whole entry, looked up): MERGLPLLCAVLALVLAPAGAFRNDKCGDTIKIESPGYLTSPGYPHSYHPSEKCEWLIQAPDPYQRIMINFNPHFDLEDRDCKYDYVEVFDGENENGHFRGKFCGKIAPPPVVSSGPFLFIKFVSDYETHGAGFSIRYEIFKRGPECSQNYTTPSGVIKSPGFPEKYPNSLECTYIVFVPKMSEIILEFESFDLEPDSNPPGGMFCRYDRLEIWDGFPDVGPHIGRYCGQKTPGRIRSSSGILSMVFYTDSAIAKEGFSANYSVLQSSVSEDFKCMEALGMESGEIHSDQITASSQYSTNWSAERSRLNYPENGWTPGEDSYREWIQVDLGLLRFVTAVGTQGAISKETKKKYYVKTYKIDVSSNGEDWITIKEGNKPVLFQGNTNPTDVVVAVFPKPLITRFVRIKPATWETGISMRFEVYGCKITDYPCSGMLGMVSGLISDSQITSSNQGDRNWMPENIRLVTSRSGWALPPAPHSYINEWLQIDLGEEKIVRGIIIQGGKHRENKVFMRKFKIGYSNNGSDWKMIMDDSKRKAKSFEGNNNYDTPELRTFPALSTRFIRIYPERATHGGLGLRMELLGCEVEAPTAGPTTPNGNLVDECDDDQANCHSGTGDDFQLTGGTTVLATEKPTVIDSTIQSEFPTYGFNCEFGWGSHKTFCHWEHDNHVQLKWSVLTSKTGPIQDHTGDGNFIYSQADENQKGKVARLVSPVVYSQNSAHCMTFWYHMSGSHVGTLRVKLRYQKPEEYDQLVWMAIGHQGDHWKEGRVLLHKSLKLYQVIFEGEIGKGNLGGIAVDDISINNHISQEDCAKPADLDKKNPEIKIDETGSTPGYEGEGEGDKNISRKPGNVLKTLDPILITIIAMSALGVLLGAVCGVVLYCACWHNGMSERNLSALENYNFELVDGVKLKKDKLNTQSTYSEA
pIC50: −log10 of the molar value.
test readout: pIC50

Below, each entry is followed by its recorded pIC50 result.
[
  {
    "compound": "COCc1cccc(-c2csc(C(C)(O)c3ccccc3)n2)c1 (stereo unspecified)",
    "tgt": "Neuropilin-1 (Homo sapiens) (UniProt O14786)",
    "result": "< 4.02"
  },
  {
    "compound": "Cc1occc1C(=O)N1N=C(C2CC2)CC1(O)C(F)(F)F (stereo unspecified)",
    "tgt": "Neuropilin-1 (Homo sapiens) (UniProt O14786)",
    "result": "< 4.02"
  },
  {
    "compound": "C#CCOc1nc(C)cc(C)c1S(=O)(=O)c1ccccc1C",
    "tgt": "Neuropilin-1 (Homo sapiens) (UniProt O14786)",
    "result": "< 4.02"
  },
  {
    "compound": "Cc1ccc2cc(CN(c3ccccc3C)S(=O)(=O)c3ccccc3)c(=O)[nH]c2c1",
    "tgt": "Neuropilin-1 (Homo sapiens) (UniProt O14786)",
    "result": "< 4.02"
  },
  {
    "compound": "CC(=O)NCCNc1nc(NC(C)C)nc2ccsc12",
    "tgt": "Neuropilin-1 (Homo sapiens) (UniProt O14786)",
    "result": "< 4.02"
  }
]

Task: Given the entry Cc1ccc(NC(=S)N2CCN(Cc3ccccc3)CC2)cc1 , report its measured pIC50.
Output: < 4.02
